Tested on: OVCAR4
Test: Euclidean distance of Cell Painting phenotypic profile (signed KS, 77 features) to DMSO centroid (dimensionless distance); higher = stronger phenotypic change vs DMSO (phenoactivity)
Settings: 48 h; 5 or 10 uM (library dependent)
Counter-ions that a name gives are not always drawn.
Assign y whenever Euclidean distance does not fall below 1; assign n whenever it does.

Examples from the recorded data:
| Molecule | Measured On | Category Label |
| --- | --- | --- |
| CC1(C)CC(O)CC(C)(C)N1[O] | OVCAR4 | n |
| CC(=O)O[C@H]1C[C@@H]2CC[C@@H]3[C@H](CC[C@@]4(C)[C@H]3C[C@H]([N+]3(C)CCCCC3)[C@@H]4OC(C)=O)[C@@]2(C)C[C@@H]1[N+]1(C)CCCCC1 [Pancuronium dibromide] | OVCAR4 | y |
| O=C(CC1NCCCC1O)Cn1cnc2cc(Br)c(Cl)cc2c1=O (stereo not drawn) | OVCAR4 | y |
| CC1(C)C(C=C(Cl)Cl)C1C(=O)OCc1cccc(Oc2ccccc2)c1 (stereo not drawn) | OVCAR4 | y |
| CC(C)(C)NCC(O)c1ccccc1Cl (stereo not drawn) [Tulobuterol hydrochloride] | OVCAR4 | y |

Q: Identify whether the reported Euclidean distance of the following molecule is 1 or greater: C[C@]12CC[C@H](O)CC1=CC[C@@H]1[C@@H]2CC[C@]2(C)C(=O)CC[C@@H]12 [Dehydroepiandrosterone (DHEA)]
Ans: y

Q: Identify whether the reported Euclidean distance of the following molecule is 1 or greater: CN1CCN(c2nc3ccccc3nc2Cl)CC1
Ans: y

Q: Identify whether the reported Euclidean distance of the following molecule is 1 or greater: COc1ccc2[nH]cc(CCN)c2c1
Ans: n
